Molecular target: Aryl hydrocarbon receptor (Rattus norvegicus)
Sequence (P41738 whole entry): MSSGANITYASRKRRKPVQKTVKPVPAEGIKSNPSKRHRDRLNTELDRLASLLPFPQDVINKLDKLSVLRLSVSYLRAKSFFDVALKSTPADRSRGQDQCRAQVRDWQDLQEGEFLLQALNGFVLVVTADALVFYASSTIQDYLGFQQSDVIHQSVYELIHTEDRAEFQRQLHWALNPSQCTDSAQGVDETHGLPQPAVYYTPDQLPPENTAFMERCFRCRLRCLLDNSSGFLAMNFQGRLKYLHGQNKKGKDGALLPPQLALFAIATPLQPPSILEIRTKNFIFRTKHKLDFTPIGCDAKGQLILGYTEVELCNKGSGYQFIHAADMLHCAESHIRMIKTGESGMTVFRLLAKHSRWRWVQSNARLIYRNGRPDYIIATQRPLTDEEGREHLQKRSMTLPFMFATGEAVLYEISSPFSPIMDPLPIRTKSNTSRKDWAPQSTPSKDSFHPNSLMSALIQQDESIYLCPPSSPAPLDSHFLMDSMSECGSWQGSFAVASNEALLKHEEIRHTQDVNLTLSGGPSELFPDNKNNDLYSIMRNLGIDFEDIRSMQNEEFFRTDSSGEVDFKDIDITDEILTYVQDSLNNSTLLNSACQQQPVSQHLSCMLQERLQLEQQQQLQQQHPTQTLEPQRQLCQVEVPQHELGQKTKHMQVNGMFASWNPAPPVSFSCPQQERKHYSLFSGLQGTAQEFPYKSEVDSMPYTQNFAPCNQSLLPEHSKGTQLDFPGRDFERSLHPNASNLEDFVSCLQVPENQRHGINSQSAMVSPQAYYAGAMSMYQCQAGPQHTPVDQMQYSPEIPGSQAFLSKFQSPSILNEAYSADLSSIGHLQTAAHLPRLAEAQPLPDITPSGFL
Assay: Antagonist activity at AhR in rat liver cytosol assessed as inhibition of TCDD-induced AhR/DNA complex formation by gel retardation assay
Assay type: subcellular
MEASUREMENT_NAME: IC50 (µM)
Numbers only, in µM.

For record COc1ccc(-c2coc3ccccc3c2=O)cc1N the listed IC50 is 1
